# subject_of_test: HLA-B*07:02 (Homo sapiens, UniProt P01889)
# experiment: MHC binding assay, UV-ligand exchange with β2m ELISA, HLA-B*07:02
# applied_conditions: binding to HLA-B*07:02, UV-ligand exchange
measure_name: Peptide exchange (MHC class I binding score, peptide exchange yield)

>  <substance>
230 (KPMKSVLVV; listed as Homo sapiens) [compound 230]

>  <test_result>
“+++” (>50 = +++)

$$$$
>  <substance>
238 (SPRSWIQVQI; listed as Homo sapiens) [compound 238]

>  <test_result>
“+++” (>50 = +++)

$$$$
>  <substance>
245 (SPLSHHSQL; listed as Homo sapiens) [compound 245]

>  <test_result>
“++” (>20% = ++)

$$$$
>  <substance>
93 (KARKSAGAA; listed as Homo sapiens) [compound 93]

>  <test_result>
“+++” (>50 = +++)

$$$$
>  <substance>
85 (IPVSHPVL; listed as Homo sapiens) [compound 85]

>  <test_result>
“++” (>20% = ++)

$$$$
>  <substance>
99 (SPRAINNLVL; listed as Homo sapiens) [compound 99]

>  <test_result>
“++++” (>75% = ++++)

$$$$
>  <substance>
236 (RPSNKAPLL; listed as Homo sapiens) [compound 236]

>  <test_result>
“+++” (>50 = +++)

$$$$
>  <substance>
237 (SPWLHAPSL; listed as Homo sapiens) [compound 237]

>  <test_result>
“++” (>20% = ++)

$$$$
>  <substance>
89 (FPETVNNLL; listed as Homo sapiens) [compound 89]

>  <test_result>
“++” (>20% = ++)

$$$$
>  <substance>
82 (APFGFLGMQSL; listed as Homo sapiens) [compound 82]

>  <test_result>
“+++” (>50 = +++)

$$$$
>  <substance>
106 (KAFKWFSAL; listed as Homo sapiens) [compound 106]

>  <test_result>
“++” (>20% = ++)

$$$$
>  <substance>
87 (FPAPILRAV; listed as Homo sapiens) [compound 87]

>  <test_result>
“+++” (>50 = +++)

$$$$
>  <substance>
249 (SPADHRGYASL; listed as Homo sapiens) [compound 249]

>  <test_result>
“++” (>20% = ++)

$$$$
>  <substance>
103 (IPANTEKASF; listed as Homo sapiens) [compound 103]

>  <test_result>
“++” (>20% = ++)

$$$$
>  <substance>
244 (MPSSDTTVTF; listed as Homo sapiens) [compound 244]

>  <test_result>
“+++” (>50 = +++)

$$$$
>  <substance>
88 (MPDPHLYHQM; listed as Homo sapiens) [compound 88]

>  <test_result>
“++” (>20% = ++)

$$$$
>  <substance>
96 (KPKKAPKSPA; listed as Homo sapiens) [compound 96]

>  <test_result>
“+++” (>50 = +++)

$$$$
>  <substance>
105 (NPLTKLLAI; listed as Homo sapiens) [compound 105]

>  <test_result>
“+++” (>50 = +++)

$$$$
>  <substance>
240 (SPSLPNITL; listed as Homo sapiens) [compound 240]

>  <test_result>
“+++” (>50 = +++)

$$$$
>  <substance>
228 (SPRITFPSL; listed as Homo sapiens) [compound 228]

>  <test_result>
“++++” (>75% = ++++)

$$$$
>  <substance>
98 (YPIALTRAEM; listed as Homo sapiens) [compound 98]

>  <test_result>
“+++” (>50 = +++)

$$$$
>  <substance>
226 (YLNRHLHTW; listed as Homo sapiens) [compound 226]

>  <test_result>
“++” (>20% = ++)

$$$$
>  <substance>
233 (SPRVYWLGL; listed as Homo sapiens) [compound 233]

>  <test_result>
“+++” (>50 = +++)

$$$$
>  <substance>
243 (LPKVQSIQL; listed as Homo sapiens) [compound 243]

>  <test_result>
“++” (>20% = ++)

$$$$
>  <substance>
246 (YPGWHSTTI; listed as Homo sapiens) [compound 246]

>  <test_result>
“++” (>20% = ++)

$$$$
>  <substance>
235 (SPSLPSRTL; listed as Homo sapiens) [compound 235]

>  <test_result>
“++” (>20% = ++)

$$$$
>  <substance>
251 (QPRLFTMDL; listed as Homo sapiens) [compound 251]

>  <test_result>
“+++” (>50 = +++)

$$$$
>  <substance>
83 (IPVSRPIL; listed as Homo sapiens) [compound 83]

>  <test_result>
“+++” (>50 = +++)

$$$$
>  <substance>
90 (KPKAAKPKA; listed as Homo sapiens) [compound 90]

>  <test_result>
“++” (>20% = ++)

$$$$
>  <substance>
225 (LPARFYQAL; listed as Homo sapiens) [compound 225]

>  <test_result>
“++++” (>75% = ++++)

$$$$
>  <substance>
250 (VPNLQTVSV; listed as Homo sapiens) [compound 250]

>  <test_result>
“++” (>20% = ++)

$$$$
>  <substance>
80 (KPLFKVSTF; listed as Homo sapiens) [compound 80]

>  <test_result>
“++” (>20% = ++)

$$$$
>  <substance>
255 (YPGSDRIML; listed as Homo sapiens) [compound 255]

>  <test_result>
“++” (>20% = ++)

$$$$
>  <substance>
229 (SPLGSLARSSL; listed as Homo sapiens) [compound 229]

>  <test_result>
“++++” (>75% = ++++)

$$$$
>  <substance>
242 (SPFSFHHVL; listed as Homo sapiens) [compound 242]

>  <test_result>
“++” (>20% = ++)

$$$$
>  <substance>
81 (SESPWLHAPSL; listed as Homo sapiens) [compound 81]

>  <test_result>
“+++” (>50 = +++)

$$$$
>  <substance>
78 (RPRGLALVL; listed as Homo sapiens) [compound 78]

>  <test_result>
“+++” (>50 = +++)

$$$$
>  <substance>
232 (APRPAGSYL; listed as Homo sapiens) [compound 232]

>  <test_result>
“+++” (>50 = +++)

$$$$
>  <substance>
92 (KAKKPAGAA; listed as Homo sapiens) [compound 92]

>  <test_result>
“++” (>20% = ++)

$$$$
